System: PSMA+ LNCaP cells
Experiment: cell surface binding and internalization of radiolabeled compounds
Format: cell-based
Conditions: 68Ga-labeled
Where a SMILES comes first, the peptide text is derived from it. [ ]: non-standard residue; d: D form. The star is where a group is joined. DOTA = O=C(O)CN1CCN(CC(=O)O)CCN(CC(=O)*)CCN(CC(=O)O)CC1; EuK = O=C(O)CC[C@H](NC(=O)N[C@@H](CCCCN*)C(=O)O)C(=O)O; 2Nal = N[C@@H](Cc1ccc2ccccc2c1)C(=O)O; Trx = NC[C@H]1CC[C@H](C(=O)O)CC1
experimental-endpoint: Specific Cell Surface Binding (% ID/10^5 cells)
Answers are plain numbers, in % ID/10^5 cells.

query: I am curious: what Specific Cell Surface Binding value has been reported for O=C(O)CC[C@H](NC(=O)N[C@@H](CCCCNC(=O)[C@H](Cc1ccc2ccccc2c1)NC(=O)[C@H]1CC[C@H](CNC(=O)[C@H](Cc2c[nH]cn2)NC(=O)[C@H](CCC(=O)O)NC(=O)[C@H](Cc2c[nH]cn2)NC(=O)[C@H](CCC(=O)O)NC(=O)[C@H](Cc2c[nH]cn2)NC(=O)[C@H](CCC(=O)O)NC(=O)CN2CCN(CC(=O)O)CCN(CC(=O)O)CCN(CC(=O)O)CC2)CC1)C(=O)O)C(=O)O [PS-2, DOTA-(EH)3-CHx-2NaI-PSMA] ({DOTA}-EHEHEH[Trx][2Nal]-EuK) ?
result: 1.27

---

Tested on: PSMA+ LNCaP cells
Assay: cell surface binding and internalization of radiolabeled compounds
Assay type: cell-based
Conditions: 68Ga-labeled, not blocked
Where a SMILES comes first, the peptide text is derived from it. [ ]: non-standard residue; d: D form. The star is where a group is joined. DOTA = O=C(O)CN1CCN(CC(=O)O)CCN(CC(=O)*)CCN(CC(=O)O)CC1; EuK = O=C(O)CC[C@H](NC(=O)N[C@@H](CCCCN*)C(=O)O)C(=O)O; 2Nal = N[C@@H](Cc1ccc2ccccc2c1)C(=O)O; Trx = NC[C@H]1CC[C@H](C(=O)O)CC1
Returns one of satisfied or not satisfied; satisfied when Cell Surface binding is >= 1 % ID/10^5 cells.

Sample answers from the record:
{"compound": "O=C(O)CC[C@H](NC(=O)N[C@@H](CCCCNC(=O)[C@H](Cc1ccc2ccccc2c1)NC(=O)[C@H](CCC(=O)O)NC(=O)[C@H](CCC(=O)O)NC(=O)[C@H](CCC(=O)O)NC(=O)[C@H]1CC[C@H](CNC(=O)CN2CCN(CC(=O)O)CCN(CC(=O)O)CCN(CC(=O)O)CC2)CC1)C(=O)O)C(=O)O [PS-9, DOTA-CHx-(E)3-2NaI-PSMA] ({DOTA-Trx}-EEE[2Nal]-EuK)", "category": "not satisfied"}
{"compound": "O=C(O)CCC(NC(=O)NC(CCCCNC(=O)C(Cc1ccc2ccccc2c1)NC(=O)C1CCC(CNC(=O)CN2CCN(CC(=O)O)CCN(CC(=O)O)CCN(CC(=O)O)CC2)CC1)C(=O)O)C(=O)O (stereo not shown) [PSMA-617, reference compound]", "category": "not satisfied"}
{"compound": "O=C(O)CC[C@H](NC(=O)N[C@@H](CCCCNC(=O)[C@H](Cc1ccc2ccccc2c1)NC(=O)[C@H]1CC[C@H](CNC(=O)[C@H](Cc2c[nH]cn2)NC(=O)[C@H](CCC(=O)O)NC(=O)[C@H](Cc2c[nH]cn2)NC(=O)[C@H](CCC(=O)O)NC(=O)[C@H](Cc2c[nH]cn2)NC(=O)[C@H](CCC(=O)O)NC(=O)CN2CCN(CC(=O)O)CCN(CC(=O)O)CCN(CC(=O)O)CC2)CC1)C(=O)O)C(=O)O [PS-2, DOTA-(EH)3-CHx-2NaI-PSMA] ({DOTA}-EHEHEH[Trx][2Nal]-EuK)", "category": "satisfied"}

query: Kindly determine if Cell Surface binding recorded for O=C(O)CC[C@H](NC(=O)N[C@@H](CCCCNC(=O)[C@H](Cc1c[nH]cn1)NC(=O)[C@H](Cc1c[nH]cn1)NC(=O)[C@H](Cc1c[nH]cn1)NC(=O)[C@H](Cc1ccc2ccccc2c1)NC(=O)[C@H]1CC[C@H](CNC(=O)CN2CCN(CC(=O)O)CCN(CC(=O)O)CCN(CC(=O)O)CC2)CC1)C(=O)O)C(=O)O [PS-8, DOTA-CHx-2NaI-(H)3-PSMA] ({DOTA-Trx}-[2Nal]HHH-EuK) is above or exactly 1 % ID/10^5 cells.
result: not satisfied

query: Evaluate O=C(O)CC[C@H](NC(=O)N[C@@H](CCCCNC(=O)[C@H](Cc1ccc2ccccc2c1)NC(=O)[C@H](Cc1c[nH]cn1)NC(=O)[C@H](Cc1c[nH]cn1)NC(=O)[C@H](Cc1c[nH]cn1)NC(=O)[C@H]1CC[C@H](CNC(=O)CN2CCN(CC(=O)O)CCN(CC(=O)O)CCN(CC(=O)O)CC2)CC1)C(=O)O)C(=O)O [PS10, DOTA-CHx-(H)3-2NaI-PSMA] ({DOTA-Trx}-HHH[2Nal]-EuK) : Cell Surface binding at minimum 1 % ID/10^5 cells?
result: not satisfied

query: Does O=C(O)CC[C@H](NC(=O)N[C@@H](CCCCNC(=O)[C@H](Cc1ccc2ccccc2c1)NC(=O)[C@H]1CC[C@H](CNC(=O)[C@H](Cc2c[nH]cn2)NC(=O)[C@H](CCC(=O)O)NC(=O)[C@H](Cc2c[nH]cn2)NC(=O)[C@H](CCC(=O)O)NC(=O)[C@H](Cc2c[nH]cn2)NC(=O)[C@H](CCC(=O)O)NC(=O)[C@H](Cc2c[nH]cn2)NC(=O)[C@H](CCC(=O)O)NC(=O)CN2CCN(CC(=O)O)CCN(CC(=O)O)CCN(CC(=O)O)CC2)CC1)C(=O)O)C(=O)O [PS-4, DOTA-(EH)4-CHx-2NaI-PSMA] ({DOTA}-EHEHEHEH[Trx][2Nal]-EuK) have a reported Cell Surface binding of at least 1 % ID/10^5 cells?
result: satisfied
